Can you tell me TP for the items I'm about to list?
# Tested on: human iPS cells (HYR0103, ATCC ACS‐1007)
# experiment.notes: devTOX quickPredict
# Format: cell-based
# condition.description: cell viability, threshold 0.85, 48 hours

Solved cases below.
compound="CCCCCC(=O)O [HA, Hexanoic acid]" assay_endpoint=TP measurement="1,022 μM"
compound="CCCC(C)(C)C(=O)O [DMPA, 2,2‐Dimethylpentanoic acid]" assay_endpoint=TP measurement="1,745 μM"

Next compound, TP to be filled in.
Which TP is reported for this compound? CCCCC(C)C(=O)O (stereo not drawn) [MHA, 2‐Methylhexanoic acid]
1,631 μM

Where do the numbers come from? From paper PMC9790683.
